Cited source for all entries: ChEMBL document CHEMBL1146071

MEASUREMENT TARGET: Growth hormone secretagogue receptor type 1 (Homo sapiens, UniProt Q92847)
Sequence (Q92847 whole entry): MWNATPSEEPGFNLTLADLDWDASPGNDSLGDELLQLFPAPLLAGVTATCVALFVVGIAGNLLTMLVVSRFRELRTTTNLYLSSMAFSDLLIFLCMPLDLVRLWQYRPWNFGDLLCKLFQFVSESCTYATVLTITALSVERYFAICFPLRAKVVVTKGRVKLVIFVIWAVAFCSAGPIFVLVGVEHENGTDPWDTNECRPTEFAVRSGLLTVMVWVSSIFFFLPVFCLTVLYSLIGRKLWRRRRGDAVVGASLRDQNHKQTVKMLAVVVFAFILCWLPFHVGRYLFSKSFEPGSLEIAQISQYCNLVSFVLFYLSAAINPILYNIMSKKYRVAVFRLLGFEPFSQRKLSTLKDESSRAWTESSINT
TEST METHOD NOTES: Antagonist activity at human GHS receptor by inhibition of ghrelin-induced intracellular calcium flux in CHOK cells
Type: functional, cell-based
QUANTITY NAME: IC50 (µM)

Field: example entries. Status: answers known.
INSERT INTO assay_data (molecule, quantity_name, reading_unit, meas_value) VALUES
  ('CCc1nc(N)nc(N)c1-c1ccc(NCc2ccc(S(C)(=O)=O)cc2)cc1', 'IC50', 'µM', 0.012),
  ('CCc1nc(N)nc(N)c1-c1ccc(NCc2ccc(S(C)(=O)=O)cc2)c(Cl)c1', 'IC50', 'µM', 0.011);

1: CS(=O)(=O)c1ccc(COc2ccc(-c3c(N)nc(N)nc3COCc3ccccc3)cc2)cc1
2: CC(=O)c1ccc(CNc2ccc(-c3c(N)nc(N)nc3COCc3ccccc3)cc2)cc1
3: Nc1nc(N)c(-c2ccc(NCc3ccnc(Cl)c3)cc2)c(COCc2ccccc2)n1
4: Nc1nc(N)c(-c2ccc(NCc3ccc([N+](=O)[O-])cc3)cc2)c(COCc2ccccc2)n1
Please list the entries, largest IC50 first. Thanks in advance for listing the labels in the requested order.
1, 2, 4, 3
(1: 0.048 µM, 2: 0.01 µM, 4: 0.0058 µM, 3: 0.0036 µM)
